Assay Protocol: Cytotoxicity against human THP1 cells assessed as cell viability at 20 uM after 72 hrs by trypan blue dye exclusion assay
Assay type: cell-based
Condition Details: THP-1 cells, read-out: Activity
Measurement Type: viability at 72 h, 20 µM (%)
A number alone suffices; assume %.

Reference set, count: 2
| Sample Smiles | viability at 72 h, 20 µM, % |
| --- | --- |
| CCOC1=C(/C(C)=N/OCC(=O)Nc2cccc(OC)c2)N(C)S(=O)(=O)c2ccccc21 | 96.2 |
| COc1cccc(NC(=O)CO/N=C(\C)C2=C(O)c3ccccc3S(=O)(=O)N2C)c1 | 92.5 |

Entry CCOC1=C(/C(C)=N/OCC(=O)Nc2ccc(C(F)(F)F)cc2)N(C)S(=O)(=O)c2ccccc21 , viability at 72 h, 20 µM reported as 93

Entry CCOC1=C(/C(C)=N/OCC(=O)Nc2c(F)cccc2F)N(C)S(=O)(=O)c2ccccc21 , viability at 72 h, 20 µM reported as 92.3

Entry C/C(=N\OCC(=O)Nc1ccc(Cl)c(C(F)(F)F)c1)C1=C(O)c2ccccc2S(=O)(=O)N1C , viability at 72 h, 20 µM reported as 91.2

Entry C/C(=N\OCC(=O)Nc1ccccc1)C1=C(O)c2ccccc2S(=O)(=O)N1C , viability at 72 h, 20 µM reported as 94.1

Entry CCOC1=C(/C(C)=N/OCC(=O)Nc2ccc(Cl)c(C(F)(F)F)c2)N(C)S(=O)(=O)c2ccccc21 , viability at 72 h, 20 µM reported as 90.2

Entry CCOC1=C(/C(C)=N/OCC(=O)Nc2cccc(F)c2)N(C)S(=O)(=O)c2ccccc21 , viability at 72 h, 20 µM reported as 92

Entry C/C(=N\OCC(=O)Nc1ccc(C(F)(F)F)cc1)C1=C(O)c2ccccc2S(=O)(=O)N1C , viability at 72 h, 20 µM reported as 93

Entry CCOC1=C(/C(C)=N/OCC(=O)Nc2ccc(OC)cc2)N(C)S(=O)(=O)c2ccccc21 , viability at 72 h, 20 µM reported as 94.2

Entry C/C(=N\OCC(=O)Nc1cccc(F)c1)C1=C(O)c2ccccc2S(=O)(=O)N1C , viability at 72 h, 20 µM reported as 95.5

====

Here the recorded IC50 is given for each entry.
Tested on: THP-1
Assay Protocol: Antiinflammatory activity in human THP1 cells assessed as inhibition of PMA-induced TNF-alpha secretion incubated for 2 hrs prior to PMA challenge measured after 48 hrs by ELISA
Assay type: functional, cell-based

Reference set, count: 8
| Compound | IC50 |
| --- | --- |
| C/C(=N\OCC(=O)Nc1cccc(F)c1)C1=C(O)c2ccccc2S(=O)(=O)N1C | > 20 µM |
| CCOC1=C(/C(C)=N/OCC(=O)Nc2ccc(Cl)c(C(F)(F)F)c2)N(C)S(=O)(=O)c2ccccc21 | > 20 µM |
| CCOC1=C(/C(C)=N/OCC(=O)Nc2cccc(OC)c2)N(C)S(=O)(=O)c2ccccc21 | > 20 µM |
| COc1ccc(NC(=O)CO/N=C(\C)C2=C(O)c3ccccc3S(=O)(=O)N2C)cc1 | > 20 µM |
| CCOC1=C(/C(C)=N/OCC(=O)Nc2ccc(F)c(Cl)c2)N(C)S(=O)(=O)c2ccccc21 | > 20 µM |
| CCOC1=C(/C(C)=N/OCC(=O)Nc2c(F)cccc2F)N(C)S(=O)(=O)c2ccccc21 | > 20 µM |
| CN1C(C(=O)Nc2ccccn2)=C(O)c2ccccc2S1(=O)=O [PIROXICAM] | > 20 µM |
| CCOC1=C(/C(C)=N/OCC(=O)Nc2ccc(C(F)(F)F)cc2)N(C)S(=O)(=O)c2ccccc21 | > 20 µM |

Entry C/C(=N\OCC(=O)Nc1c(F)cccc1F)C1=C(O)c2ccccc2S(=O)(=O)N1C , IC50 reported as > 20 µM

Entry CCOC1=C(/C(C)=N/OCC(=O)Nc2ccc(OC)cc2)N(C)S(=O)(=O)c2ccccc21 , IC50 reported as > 20 µM

Entry C/C(=N\OCC(=O)Nc1ccc(C(F)(F)F)cc1)C1=C(O)c2ccccc2S(=O)(=O)N1C , IC50 reported as 12.1 µM

Entry COc1cccc(NC(=O)CO/N=C(\C)C2=C(O)c3ccccc3S(=O)(=O)N2C)c1 , IC50 reported as > 20 µM

Entry C/C(=N\OCC(=O)Nc1ccc(F)c(Cl)c1)C1=C(O)c2ccccc2S(=O)(=O)N1C , IC50 reported as > 20 µM

Entry CCOC1=C(/C(C)=N/OCC(=O)Nc2ccccc2)N(C)S(=O)(=O)c2ccccc21 , IC50 reported as > 20 µM

Entry C/C(=N\OCC(=O)Nc1ccccc1)C1=C(O)c2ccccc2S(=O)(=O)N1C , IC50 reported as > 20 µM

Entry CCOC1=C(/C(C)=N/OCC(=O)Nc2cccc(F)c2)N(C)S(=O)(=O)c2ccccc21 , IC50 reported as > 20 µM

Entry C/C(=N\OCC(=O)Nc1ccc(Cl)c(C(F)(F)F)c1)C1=C(O)c2ccccc2S(=O)(=O)N1C , IC50 reported as 6 µM
